Assay: Cmax in Beagle dog at 1 mg/kg, iv measured after 24 hrs by HPLC-MS analysis
Format: ADME, organism-based, Canis lupus familiaris
Details: in vivo
value.kind: Cmax (µM)
Numbers only here, please. The scale is µM.

Ask: I'd like to know its Cmax. The molecule in question is NS(=O)(=O)c1c(C(F)(F)F)ccc(-c2ccc(C3CCN(CC4CNC4)CC3)cc2)c1-c1nnn[nH]1
Reply: 13.8

Ask: Then what about the molecule NS(=O)(=O)c1c(C(F)(F)F)ccc([C@H]2CC[C@H](N)CC2)c1-c1nnn[nH]1 ?
Reply: 15

Ask: Now this one: Nc1nc2cccc(-c3ccc(C(F)(F)F)c(S(N)(=O)=O)c3-c3nnn[nH]3)c2[nH]1
Reply: 9

Ask: Input NS(=O)(=O)c1c(CC2CCNCC2)ccc(-c2ccc(C3CCNCC3)cc2)c1-c1nn[nH]n1
Reply: 15

Ask: Do the same for NS(=O)(=O)c1c(C[C@H]2CC[C@H](N)CC2)ccc(-c2ccc(C3CNC3)cc2)c1-c1nn[nH]n1 please
Reply: 9.3

###

Test: AUC in Beagle dog at 1 mg/kg, iv measured after 24 hrs by HPLC-MS analysis
Format: ADME, organism-based, Canis lupus familiaris
Conditions: in vivo
value.kind: AUC at 24 h (µM·h)
Express your answer in µM·h, writing the number without its unit.

INSERT INTO results (molecule_smiles, reading) VALUES
  ('NS(=O)(=O)c1c(C(F)(F)F)ccc([C@H]2CC[C@H](N)CC2)c1-c1nnn[nH]1', 16.7),
  ('NS(=O)(=O)c1c(CC2CCNCC2)ccc(-c2ccc(C3CCNCC3)cc2)c1-c1nn[nH]n1', 10.4);

// next entry
Ask: What value of AUC at 24 h has been reported for the following molecule? Nc1nc2cccc(-c3ccc(C(F)(F)F)c(S(N)(=O)=O)c3-c3nnn[nH]3)c2[nH]1
Reply: 4.34

###

Test: Cmax in Wistar rat at 90 mg/kg, iv measured after 24 hrs by HPLC-MS analysis
Assay type: ADME, organism-based
Conditions: in vivo
value.kind: Cmax (µM)
Report the value in µM with no unit label.

Ask: Field request: Cmax | item: Nc1ccc(-c2ccc(CC3CCNCC3)c(S(N)(=O)=O)c2-c2nn[nH]n2)cn1
Reply: 791

###

Assay: Inhibition of GST tagged NDM-1 (unknown origin) expressed in Escherichia coli BL21 Star (DE3) competent cells using CCF2-FA as substrate incubated for 2 hrs by fluorescence based analysis
We label by threshold. Values of IC50 strictly beneath 3 nM are true. Values of 3 nM and up are false.

Worked examples, 5 compounds total:
INSERT INTO results (molecule_smiles, label_class) VALUES
  ('Nc1nc2cccc(-c3ccc(C(F)(F)F)c(S(N)(=O)=O)c3-c3nnn[nH]3)c2[nH]1', 'true'),
  ('NS(=O)(=O)c1c(C(F)(F)F)ccc(-c2ccc(C3CCN(CC4CNC4)CC3)cc2)c1-c1nnn[nH]1', 'true'),
  ('Nc1nc2ccc(-c3ccc(C(F)(F)F)c(S(N)(=O)=O)c3-c3nn[nH]n3)cc2s1', 'true'),
  ('Cc1ccc(-c2cccc(S(N)(=O)=O)c2-c2nnn[nH]2)cc1', 'false'),
  ('NS(=O)(=O)c1c(C(F)(F)F)ccc(-c2ccc(C3CCNCC3)cc2)c1-c1nn[nH]n1', 'true');

Ask: Please check: IC50 for NS(=O)(=O)c1c(C(F)(F)F)ccc([C@H]2CC[C@H](N)CC2)c1-c1nnn[nH]1 , strictly under 3 nM or not?
Reply: false

Ask: Quick one: NS(=O)(=O)c1c(C[C@H]2CC[C@H](N)CC2)ccc(-c2ccc(C3CNC3)cc2)c1-c1nn[nH]n1
Reply: false

Ask: What about NS(=O)(=O)c1c(CC2CNC2)ccc(-c2ccc(C3CCNCC3)cc2)c1-c1nn[nH]n1 ?
Reply: false

Ask: Another compound to check: NS(=O)(=O)c1c(Cl)ccc(-c2ccc(C3CCNCC3)cc2)c1-c1nn[nH]n1
Reply: false

Ask: Param item: Nc1nc2c(-c3ccc(C(F)(F)F)c(S(N)(=O)=O)c3-c3nn[nH]n3)cccc2s1
Reply: true

Ask: Proceed to Nc1ccc(-c2ccc(C(F)(F)F)c(S(N)(=O)=O)c2-c2nn[nH]n2)cn1
Reply: true

Ask: // same read-out, input: NS(=O)(=O)c1c(Br)ccc(-c2ccc(C3CCNCC3)cc2)c1-c1nn[nH]n1
Reply: false

Ask: Now consider Nc1nc2c(-c3ccc(CC4CCNCC4)c(S(N)(=O)=O)c3-c3nn[nH]n3)cccc2s1 and answer again.
Reply: true

Ask: Check NC1(c2ccc(-c3ccc(C(F)(F)F)c(S(N)(=O)=O)c3-c3nn[nH]n3)cc2)CCNCC1 too.
Reply: false

Ask: Item: N=C(N)NCc1ccc(-c2ccc(C(F)(F)F)c(S(N)(=O)=O)c2-c2nn[nH]n2)cc1
Reply: false

Ask: Param item: NS(=O)(=O)c1c(C(F)(F)F)ccc(-c2ccc(NS(=O)(=O)C3CC3)cc2)c1-c1nn[nH]n1
Reply: true

Ask: NCCCc1ccc(-c2cccc3sc(N)nc23)c(-c2nn[nH]n2)c1S(N)(=O)=O ?
Reply: true
